# system name: recombinant human 15-PGDH (Homo sapiens, UniProt P15428)
# Construct: purchased R&D Systems
# experiment notes: 15-PGDH enzyme inhibition test
# Assay type: biochemical
# condition: 4 nM recombinant human 15-PGDH, 30 μM PGE2, 1 mM NAD+, 60 minutes after starting the reaction; read-out: IC50 Value
// reported IC50 per item

Sample records with IC50:
>>> df
                      smiles_representation                               system_name   reported
0  O=C1NCc2cc(N3CCOc4cc(C(=O)N5CCCCC5)cnc43)ccc21  recombinant human 15-PGDH (Homo sapiens, UniProt P15428)  < 0.01 µM
1  Cn1nc2cc(N3CC(C)(C)Oc4cc(C(=O)N5CCCCC5)cnc43)ccn2c1=O  recombinant human 15-PGDH (Homo sapiens, UniProt P15428)  < 0.01 µM
2  CC(C)(C)OC(=O)c1ccc(N2CCOc3cc(C(=O)N4CCC[C@H](F)C4)cnc32)cc1  recombinant human 15-PGDH (Homo sapiens, UniProt P15428)   > 0.1 µM
3  O=C(c1cnc2c(c1)OCCN2c1ccc2c(=O)[nH]ccc2c1)N1CCC(F)(F)CC1  recombinant human 15-PGDH (Homo sapiens, UniProt P15428)  < 0.01 µM

Field: next compound
# input Specify IC50 for O=C(c1cnc2c(c1)CCCN2c1ccc2c(=O)[nH]ccc2c1)N1CCCCC1 and stop.
# output < 0.01 µM

----------
# system name: recombinant human 15-PGDH (Homo sapiens)
# Construct: purchased R&D Systems
# Sequence (P15428 1-266): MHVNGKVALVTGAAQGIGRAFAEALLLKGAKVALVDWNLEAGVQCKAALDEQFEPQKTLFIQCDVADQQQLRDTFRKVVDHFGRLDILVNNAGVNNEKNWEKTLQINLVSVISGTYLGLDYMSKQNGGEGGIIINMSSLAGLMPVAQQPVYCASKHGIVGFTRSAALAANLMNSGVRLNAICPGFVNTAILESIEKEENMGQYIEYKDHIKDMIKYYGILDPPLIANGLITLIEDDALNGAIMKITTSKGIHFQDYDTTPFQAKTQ
# experiment notes: 15-PGDH enzyme inhibition test
# Format: biochemical
# condition: 4 nM recombinant human 15-PGDH, 30 μM PGE2, 1 mM NAD+, 60 minutes after starting the reaction; read-out: IC50 Value
pIC50: −log10 of the molar value.
quantity measured: pIC50

Sample records with pIC50:
In [3]: df
Out[3]:
                                   compound      reported
0  C[C@H]1COc2cc(C(=O)N3CCCCC3)ccc2N(c2ccn3c(=O)n(C)nc3c2)C1        > 8.00
1  CN1Cc2cc(N3CCCc4cc(C(=O)N5CCC(F)(F)CC5)cnc43)ncc2C1=O  7.00 to 8.00
2  Cn1nc2cc(N3CCOc4cc(C(=O)N5CCC[C@H]5C(=O)OC(C)(C)C)cnc43)ccn2c1=O        < 7.00
3  CCn1nc2cc(N3CCCc4cc(C(=O)N5CC=CCC5)cnc43)ccn2c1=O        > 8.00
4  O=C(c1cnc2c(c1)OCCN2c1ccn2c(=O)n(Cc3ccnc(Cl)c3)nc2c1)N1CCCCC1        > 8.00

# input # return pIC50 of Cn1cnc2cc(N3CCCc4cc(C(=O)N5CCCCC5)cnc43)cnc2c1=O (system: recombinant human 15-PGDH (Homo sapiens))
# output > 8.00

# input # return pIC50 of O=C(c1cnc2c(c1)OCCN2c1ccn2c(=O)n(CC3COC3)nc2c1)N1CCCCC1 (system: recombinant human 15-PGDH (Homo sapiens))
# output > 8.00

# input # return pIC50 of Cn1nc2cc(N3CCOc4cc([S+]([O-])C5CCCCC5)cnc43)ccn2c1=O (centres unmarked) (system: recombinant human 15-PGDH (Homo sapiens))
# output > 8.00
